Measured values drawn from patent US20090131528A1 for this set.

Assay: physchem
Property measured: pKa
One number for each entry.

[Q] // query pKa value for entry COCCCOc1cc(C[C@@H](C[C@H](N)[C@@H](O)C[C@H](C(=O)NCC(C)(C)C(N)=O)C(C)C)C(C)C)ccc1OC
[A] 9.79
